Source of measurements: ChEMBL document CHEMBL1201862

Test system: SK-OV-3
Method: NCI tumour cell line growth inhibition, 48 h
Activity calls are given as the source filed them. Rule as the data show it: active = GI50 up to about 1.1 µM and inactive = higher.
This section presents compounds with their documented GI50 values.

* CC1=NN(C2=NS(=O)(=O)c3ccccc3N2C)C(=O)C1 | > 100 µM (inactive)

Please look up its GI50: O=C1CC(CC(=O)C2CCCCC2=O)C(=O)N1 (stereo unspecified) > 100 µM (inactive)

# lookup: GI50 of "O=c1ccc2nc3cc(Br)ccc3sc-2c1" > 100 µM (inactive)

Entry CON(C)C(=O)C(C)NC(=O)OC(C)(C)C (stereo unspecified) has what GI50? > 100 µM (inactive)

// query GI50 value for entry "Clc1ccc(-c2nnc(C34CC5CC(CC(C5)C3)C4)o2)cc1" > 100 µM (inactive)

Can you look up the measured GI50 of CN1C(c2ccccc2)CC(=NOCc2ccccc2)CC1c1ccccc1 (stereo unspecified) for me? 75 µM (inactive)

Which GI50 value belongs to "O=[N+]([O-])c1ccc(/C=C/c2csnn2)cc1" ? > 100 µM (inactive)

Recorded GI50 of "Cc1c(S(=O)(=O)c2ccccc2)c(N)n(Cc2ccccc2)c1C" , please. > 100 µM (inactive)

* * *

System: PC-3
Method: NCI tumour cell line growth inhibition, 48 h
The source made the active and inactive calls. No stated cut-off is given here; in the data, active = GI50 up to about 1.1 µM and inactive = higher.
Respond with a class label; see 1 (active), -1 (inactive)

Field: example entries. Status: answers known.
* Cc1cc(-c2nc3cccc(O)c3s2)ccc1N | -1
* CC(O[Si](c1ccccc1)(c1ccccc1)C(C)(C)C)[C@H](NC(=O)OC(C)(C)C)C(=O)O[Si](c1ccccc1)(c1ccccc1)C(C)(C)C (stereo partly drawn) | -1

For CC(CN(C)C)C(=O)/C=C/c1ccc(Cl)c(Cl)c1 (stereo not drawn) , which call appears in the assay record? 1

Would you mind telling me which call this test gave "CC(C)/C(Cl)=N\OC(=O)Nc1ccc(F)cc1F" ? -1

Hello, I am checking results. What call was entered for "Oc1cc(-c2ccccc2)cn2c1nc1ccccc12" ? -1

Query: recorded result category for O=C(O)CC(NC(=O)/C(=C/c1ccccc1)NC(=O)c1ccccc1)C(=O)O (stereo not drawn) in this test -1

For CC1(C)OC2C(=O)C=C(COCc3ccccc3)C2O1 (stereo not drawn) , which call appears in the assay record? -1

Identify the outcome logged in this assay for the molecule shown: "NS(=O)(=O)c1ccc(/N=N/c2nc3[nH]cnc(=S)c3[nH]2)cc1" -1

Please let me know the test result on file for "CCCCC(=O)c1c(O)nc2sccn2c1=O" . -1

For "CSc1ccc(/C=C/C(=O)c2nc3ccccc3[nH]2)cc1" , which call appears in the assay record? -1

Dear colleague, could you share the recorded outcome for COC(=O)C(CNC(=O)/C=C/c1ccc(OC(C)=O)c(OC(C)=O)c1)NC(=O)/C=C/c1ccc(OC(C)=O)c(OC(C)=O)c1 (stereo not drawn) when you have a moment? -1

Fill in: this test's call for CN1C(c2ccccc2)CC(=NOCc2ccccc2)CC1c1ccccc1 (stereo not drawn) is ___ -1

* * *

Entries and their measured GI50 follow.
Tested on: CCRF-CEM
Method: NCI tumour cell line growth inhibition, 48 h
Activity calls are given as the source filed them. No stated cut-off is given here; in the data, active = GI50 up to about 1.1 µM and inactive = higher.

// worked examples, GI50 included
* C/C=C/C=C/c1nc(C#N)c(N)o1 | 7.08 µM (inactive)
* COc1ccc(C2CC(c3c(O)ccc4ccccc34)=NN2)cc1OC (stereo not given) | 4.85 µM (inactive)
* O=C(COc1ccc2c(=O)cc(-c3ccccc3)oc2c1)N1CCN(c2ccccc2)CC1 | 24.7 µM (inactive)

I have this compound here, CCCCCCCCCCCC(=O)OCC1OC(n2cc(F)c(=O)[nH]c2=O)C(NC(=O)OCc2ccccc2)C(OC(=O)CCCCCCCCCCC)C1O (stereo not given) , and I need its recorded GI50. > 100 µM (inactive)

Which GI50 is listed for "c1cc2nnc1SCCSCCCSCCS2" ? > 100 µM (inactive)
